- System: Plasmodium berghei
- protocol-notes: Screen against P. berghei liver stage (PbLuc), transformed with Luciferase, at 2uM
- Format: functional, HepG2
- assay-conditions: tested at 2 uM
The whole screen tested about 68,000 compounds, of which about 2,700 (4%) showed an effect of 50% or more. The sample holds strong results, similar compounds and a random draw of the others, so the mix is not that of the screen.
assay-endpoint: INHIBITION

> print(dat)
                                    compound  test.value
 1    Cc1ccccc1OC1CCN(CC(=O)Nc2cn(C)nc2C)CC1      54.75%
 2  CN1C(=O)CC(C(=O)O)C12CCN(c1ccc3cccc(Cl)c3n1)CC2 (stereo unspecified)      -1.78%
 3  CCN(CC)C(=O)c1cc(Br)cc(S(=O)(=O)N2CCOCC2)c1F       0.48%
 4  Cc1nc([C@H]2C[C@@H]3CCN(Cc4scnc4C)C[C@H]3O2)no1      40.64%
 5     Cc1ccccc1OC1CCN(CC(=O)Nc2ccn(C)n2)CC1       9.02%
 6            O=C(NCCOc1ccc(Cl)cn1)Nc1cccnc1      -1.56%
 7  COc1ccc(NC(=O)CCC2CCCN(S(=O)(=O)C3CC3)C2)cc1Cl (stereo unspecified)      13.99%
 8  COc1cc(N2C[C@H]3CCC[C@@H](CN4CCOCC4)[C@H]3C2)ncn1      36.75%
 9  Cn1ccnc1CN1CCOC(Cn2cccn2)C1 (stereo unspecified)       7.01%
10  COc1ccc(NC(=O)C2CC(=O)n3cnnc3S2)cc1 (stereo unspecified)       6.05%
11  CCc1noc(C(C)N2CCN(C)CC2)n1 (stereo unspecified)       9.83%

---

- Test system: Plasmodium berghei
- protocol-notes: Screen against P. berghei liver stage (PbLuc), transformed with Luciferase, at 2uM
- Assay type: functional, HepG2
- assay-conditions: tested at 2 uM
The campaign covered roughly 68,000 compounds. About 2,700 (4%) showed an effect of 50% or more. The sample holds strong results, similar compounds and a random draw of the others, so the mix is not that of the screen.
// reported INHIBITION per item
assay-endpoint: INHIBITION (%)

> print(dat)
                                    compound  assay.endpoint  test.value
 1  COc1cc2c(cc1-c1nc3c(cnn3C(C)C)[nH]1)OCO2      INHIBITION       60.13
 2  Fc1cccnc1O[C@@H]1CN(Cc2ccco2)[C@@H]2CCCO[C@@H]21      INHIBITION       -8.22
 3  Cc1cnc(N2C(=O)CSC2c2ccc(N(C)C)cc2)s1 (stereo unspecified)      INHIBITION       -8.23
 4  CCc1nn(-c2cc(Oc3cc(C)ccc3C)nc(C)n2)c(N)c1C#N      INHIBITION       16.91
 5  Cc1cc(C(=O)N2CCN(C(=O)CCC3CCCCC3)CC2)n(C)n1      INHIBITION       74.44
 6  N#Cc1cccc(N2CCCC3(CCC(=O)N(C4CCCC4)C3)C2)n1 (stereo unspecified)      INHIBITION      -11.07
 7  Cc1nc(O)cc(C2CCCN(C(=O)CN(C)c3ccccc3)C2)n1 (stereo unspecified)      INHIBITION      -14.36
 8  CCOc1ccccc1C(CC(=O)Nc1ccccc1)NC(C)=O (stereo unspecified)      INHIBITION       23.45
 9  COc1ccc(N2CCC(N(C)C(C)C(=O)N(C)C)CC2)cc1 (stereo unspecified)      INHIBITION       -2.89
10          O=C(c1ccon1)N1CCN(c2ccncc2Cl)CC1      INHIBITION        39.5
11  Cc1n[nH]c(C2CN(Cc3nnc(C4CC4)n3C)CCO2)n1 (stereo unspecified)      INHIBITION      -82.49
12  CCOc1ccccc1C(CC(=O)Nc1ncc(C)s1)NC(C)=O (stereo unspecified)      INHIBITION      -32.89
13  CC(C)c1nc(CN(C)C(=O)c2ccc(CN3CCCCC3)cc2)cs1      INHIBITION        0.31
14  Cn1cc(C(=O)Nc2ccc(CC(=O)NCC(F)(F)F)cc2)nn1      INHIBITION       78.24
15  CC(=O)N[C@@H]1CN(C2CCN(c3cccc(Cl)c3)CC2)C[C@H]1C(C)C      INHIBITION       21.97
16     CN(C)C(=O)Cc1ccc(NC(=O)c2cn(C)nn2)cc1      INHIBITION       29.87
17    COc1cccc(OC2CN(C(=O)c3ccnc(OC)c3)C2)c1      INHIBITION        6.85
18  COc1ccc(-c2cnc(CN3CCCC3Cn3cccn3)o2)cc1 (stereo unspecified)      INHIBITION      -36.73
19  CC(C)=CCN1C[C@@H]2CN(C(=O)c3cnccc3C)C[C@]2(C(=O)O)C1      INHIBITION       -9.48
20  Cc1cc(NC(=O)Cn2cc(C#N)c(=O)c3cc(Br)ccc32)no1      INHIBITION        3.43
21  CCOC(C)C(=O)N(C)C1CCN(c2ccc(OC)cc2)CC1 (stereo unspecified)      INHIBITION       73.09
22  CC(=O)N[C@@H]1CN(C2CCN(c3cccc(C)c3C)CC2)C[C@H]1C(C)C      INHIBITION       29.13
23  CCOC(C)C(=O)NS(=O)(=O)c1cccc2cc(C)cnc12 (stereo unspecified)      INHIBITION        9.27
24  CC(C#N)CNS(=O)(=O)c1ccc(Br)c(F)c1 (stereo unspecified)      INHIBITION       64.21
25  CC(=O)N[C@@H]1CN(C2CCN(c3ccccc3F)CC2)C[C@H]1C(C)C      INHIBITION        7.67
26  CC(C)c1nc(CN2CCCC2Cn2cncn2)no1 (stereo unspecified)      INHIBITION      -13.92
27  COc1ccc(N2CCC(NC(=O)c3ccc(C#N)cc3)CC2)cc1      INHIBITION       45.62
28  c1cncc(COC2COC3(CCN(c4cnccn4)CC3)C2)c1 (stereo unspecified)      INHIBITION      -16.36
29  Cc1cnc2c(S(=O)(=O)NCC3CCS(=O)(=O)C3)cccc2c1 (stereo unspecified)      INHIBITION      -84.03
30  CCc1n[nH]c(C2CN(Cc3nnc(C4CC4)n3C)CCO2)n1 (stereo unspecified)      INHIBITION       51.32
31      CCc1ccccc1OC1CN(C(=O)c2ccnc(OC)c2)C1      INHIBITION       72.94
32  COc1ccc(N2CCC(N(C)C(=O)C(C)SC)CC2)cc1 (stereo unspecified)      INHIBITION        27.5
33    Cn1cc(C(=O)Nc2ccc(CC(=O)NC3CC3)cc2)nn1      INHIBITION       52.85
34  CCN1C[C@@H]2[C@@H](OC)CCN(S(=O)(=O)c3ccccc3F)[C@@H]2C1      INHIBITION      -22.38
35  CC(C)CN1CC[C@H](c2nnc(COc3ccc(F)cc3)o2)C1      INHIBITION       10.65
36  Cc1nn(C)c(C)c1C(=O)N1CCN(C(=O)CC2CCCCC2)CC1      INHIBITION       43.44
37  N[C@H]1CN(C(=O)c2ccc3[nH]c(=O)c(=O)[nH]c3c2)C[C@@H]1c1ccccc1      INHIBITION       -6.88
38  Fc1cccnc1O[C@H]1CN(Cc2ccoc2)[C@@H]2CCCO[C@H]12      INHIBITION       -0.18
39          CNC(=O)c1cccc(CCNc2ncc(Br)cn2)c1      INHIBITION       12.41
40    CC(=O)N1CCc2ccc(NC(=O)c3cn(C)nn3)cc2C1      INHIBITION       29.65
41  Cc1cnc2c(S(=O)(=O)NCC3CCOC3)cccc2c1 (stereo unspecified)      INHIBITION        1.61
42  Cc1cnc2c(S(=O)(=O)NC3CCS(=O)(=O)C3)cccc2c1 (stereo unspecified)      INHIBITION      -15.28
43  Cc1nn(C)c(C)c1C(=O)N1CCN(C(=O)CCC2CCCCC2)CC1      INHIBITION       21.97
44  CCCn1cnnc1CNC(=O)C1COc2ccc(OC)cc2C1 (stereo unspecified)      INHIBITION       21.14
45  CCn1c(C2CCN(C(=O)c3ccc4cc[nH]c4c3)CC2)n[nH]c1=O      INHIBITION       -9.71
46  c1cncc(-c2noc(CN3CCCC3Cn3cccn3)n2)c1 (stereo unspecified)      INHIBITION        5.59

This collection of values is drawn from ChEMBL document CHEMBL4513216.
